B1: OR4K15 (parent)
chain: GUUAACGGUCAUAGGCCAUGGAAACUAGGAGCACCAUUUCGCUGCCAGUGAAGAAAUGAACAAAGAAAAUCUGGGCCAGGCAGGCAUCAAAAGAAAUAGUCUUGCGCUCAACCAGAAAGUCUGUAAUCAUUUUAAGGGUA

- Variants of: B1
- MEASUREMENT_NOTES: self-cleavage, relative activity (ratio to wild type); higher = more cleavage; in vitro, sequencing; the parent is a self-cleaving ribozyme
OUTCOME_MEASURE: self-cleavage

INSERT INTO assay_data (changes, outcome_measure, data_value) VALUES
  ('U108A U122C', 'self-cleavage', 0.04),
  ('U12G A22G', 'self-cleavage', 1.13),
  ('C85A A125G', 'self-cleavage', 0.72),
  ('A78U G84C', 'self-cleavage', 0.11),
  ('A82G A89U', 'self-cleavage', 0.51),
  ('A23G A114U', 'self-cleavage', 0.07),
  ('U43C A54U', 'self-cleavage', 0.85),
  ('U37C A95U', 'self-cleavage', 1.73),
  ('U37C A78G', 'self-cleavage', 0.26),
  ('U2C A96C', 'self-cleavage', 1.85),
  ('A36C U87A', 'self-cleavage', 2.59),
  ('A24G A125C', 'self-cleavage', 0.4),
  ('A30G A86U', 'self-cleavage', 1.37),
  ('A60G U97A', 'self-cleavage', 1.69),
  ('A63G G83A', 'self-cleavage', 1.84),
  ('U72G A95U', 'self-cleavage', 0.12),
  ('C10U A64G', 'self-cleavage', 1.25),
  ('C25U A59G', 'self-cleavage', 1.24),
  ('U12A U43A', 'self-cleavage', 1.63),
  ('A33G G58A', 'self-cleavage', 0.55),
  ('U39C U43A', 'self-cleavage', 1.92),
  ('A82G A98G', 'self-cleavage', 0.27),
  ('A51G A89G', 'self-cleavage', 0.95),
  ('A117G A118U', 'self-cleavage', 1.72),
  ('A23G U120G', 'self-cleavage', 1.48),
  ('G50U A66U', 'self-cleavage', 2.16),
  ('U39A A52G', 'self-cleavage', 1.21),
  ('A5G A92U', 'self-cleavage', 0.95),
  ('A60U A86U', 'self-cleavage', 1.67),
  ('A78G U127C', 'self-cleavage', 0.22),
  ('U38G U108C', 'self-cleavage', 0.03),
  ('G7A A22U', 'self-cleavage', 1.51),
  ('U102C A117G', 'self-cleavage', 2.72),
  ('A56C A118G', 'self-cleavage', 0.63),
  ('A27U A125G', 'self-cleavage', 0.84),
  ('U2C A134G', 'self-cleavage', 1.59);
